Would you kindly list inhibition for each of these molecules?
System: Progesterone receptor (Mesocricetus auratus)
Test: Percent inhibition of [3H]- progesterone binding to Syrian golden hamster uterine cytosol progesterone receptor, at 10e-8 M compound concentration
Conditions: at 0.01 µM
# value in %; strip the unit string

Fill blank: measured inhibition of the molecule COC(=O)C1=C(C)N=C(C)/C(=C(/O)OC)C1c1ccc2nc(-c3ccc(O)c(OC)c3)n(Cc3ccc(O)c(OC)c3)c2c1 (stereo unspecified) is ____.
5

Fill blank: measured inhibition of the molecule COC(=O)C1=C(C)N=C(C)/C(=C(\O)OC)C1c1ccc(C(=O)OC)cc1 (stereo unspecified) is ____.
10

Fill blank: measured inhibition of the molecule COC(=O)C1=C(C)N=C(C)/C(=C(/O)OC)C1c1ccc(C2C(C(=O)OC)=C(C)N=C(C)/C2=C(/O)OC)cc1 (stereo unspecified) is ____.
13

Fill blank: measured inhibition of the molecule CNc1ccc(C2C(C(=O)OC)=C(C)N=C(C)/C2=C(/O)OC)cc1[N+](=O)[O-] (stereo unspecified) is ____.
4

Fill blank: measured inhibition of the molecule COC(=O)C1=C(C)N=C(C)/C(=C(\O)OC)C1c1cc(C(=O)c2ccc(C)cc2)c(OC)cc1OC (stereo unspecified) is ____.
12

Fill blank: measured inhibition of the molecule COC(=O)C1=C(C)N=C(C)/C(=C(/O)OC)C1c1ccc2nc(-c3ccc4c(c3)OCO4)n(Cc3ccc4c(c3)OCO4)c2c1 (stereo unspecified) is ____.
5

Fill blank: measured inhibition of the molecule COC(=O)C1=C(C)N=C(C)/C(=C(/O)OC)C1c1cc2ccccc2nc1Cl (stereo unspecified) is ____.
10

Fill blank: measured inhibition of the molecule COC(=O)C1=C(C)N=C(C)/C(=C(/O)OC)C1c1ccc(Cl)c([N+](=O)[O-])c1 (stereo unspecified) is ____.
5

Fill blank: measured inhibition of the molecule COC(=O)Nc1nc2cc(C3C(C(=O)OC)=C(C)N=C(C)/C3=C(/O)OC)ccc2[nH]1 (stereo unspecified) is ____.
10

Fill blank: measured inhibition of the molecule COC(=O)C1=C(C)N=C(C)/C(=C(/O)OC)C1c1ccc2nc(-c3ccccc3)c(-c3ccccc3)nc2c1 (stereo unspecified) is ____.
9

Fill blank: measured inhibition of the molecule COC(=O)C1=C(C)N=C(C)/C(=C(/O)OC)C1c1ccc(N)c(N)c1 (stereo unspecified) is ____.
0

Fill blank: measured inhibition of the molecule COC(=O)C1=C(C)N=C(C)/C(=C(/O)OC)C1c1cc2ccccc2n2nnnc12 (stereo unspecified) is ____.
8

Fill blank: measured inhibition of the molecule COC(=O)C1=C(C)N=C(C)/C(=C(/O)OC)C1c1ccc2nc3n(c2c1)C(=O)c1ccccc1-3 (stereo unspecified) is ____.
9

Fill blank: measured inhibition of the molecule COC(=O)C1=C(C)N=C(C)/C(=C(\O)OC)C1c1cc2cc(-c3c(C)oc(C)c3C(=O)OC)ccc2nc1Cl (stereo unspecified) is ____.
10

Fill blank: measured inhibition of the molecule COC(=O)C1=C(C)N=C(C)/C(=C(/O)OC)C1c1ccc(NCc2ccccc2)c([N+](=O)[O-])c1 (stereo unspecified) is ____.
0

Fill blank: measured inhibition of the molecule COC(=O)C1=C(C)N=C(C)/C(=C(/O)OC)C1c1ccc(C=O)cc1 (stereo unspecified) is ____.
9
